compounds and their reported growth
test system: E. coli TESEC Mtb Alr; experiment: growth (OD600 after 10 h); higher = more growth (less inhibition); conditions: arabinose 1000 nM; compound 0.1 mM; raw OD600 reference: median of DMSO wells 0.294, cell-free background 0.041
Counter-ions that a name gives are not always drawn.
Please reply with the number alone, leaving off any unit.

For orientation, consider the following solved cases.
CC(=O)OC1CN2CCC1CC2 (stereo unspecified) [Aceclidine Hydrochloride]    0.314
COc1ccc(CCN)cc1OC    0.287
CN1CCN(C(=O)OC2c3nccnc3C(=O)N2c2ccc(Cl)cn2)CC1 (stereo unspecified)    0.284
C[C@]12CC[C@@H](O)C[C@H]1CC[C@@H]1[C@@H]2CC[C@]2(C)C(=O)CC[C@@H]12 [3-alpha-Hydroxy-5-beta-androstan-17-one]    0.135
CCC1(CC)C(=O)C=CNC1=O    0.295

Input line: Which growth is listed for c1ccc2c(c1)OCC(C1=NCCN1)O2 (stereo unspecified) [Idazoxan hydrochloride] ?
Output line: 0.281

Input line: Same question, C[N+]12CCC(CC1)C(OC(=O)C(O)(c1ccccc1)c1ccccc1)C2 (stereo unspecified) [Clidinium bromide] this time
Output line: 0.326

// provenance: the supplement of paper PMC9262897
